Exercise: for every item that follows, state its recorded EC50.
# System: HCV genotype 1b replicon with NS5A L31V mutation
# assay-protocol: Transiently transfected assay of genotype 1b resistance mutant RNA L31V
# Assay type: cell-based
# conditions-used: Hepatitis C virus, Huh-7.5.1, 72 h, read-out: HCV Mutation L31V

**Query** GET EC50 | system: HCV genotype 1b replicon with NS5A L31V mutation | item: `CCCC1(CCC)c2cc(NC(=O)[C@@H]3CCCN3C(=O)[C@H](NC(=O)OC)c3ccccc3)ccc2-c2ccc(NC(=O)[C@@H]3CCCN3C(=O)[C@H](NC(=O)OC)c3ccccc3)cc21`
**Result** 0.1 to 1 nM

**Query** Tell me EC50 of `CCCCC1(CCCC)c2cc(NC(=O)[C@@H]3C[C@@H](OC)CN3C(=O)[C@H](NC(=O)OC)c3ccccc3)ccc2-c2ccc(NC(=O)[C@@H]3C[C@@H](OC)CN3C(=O)[C@H](NC(=O)OC)c3ccccc3)cc21` when tested on HCV genotype 1b replicon with NS5A L31V mutation.
**Result** 0.001 to 0.01 nM

**Query** Using HCV genotype 1b replicon with NS5A L31V mutation as the test system, report measured EC50 of `CCCCC1(CCCC)c2cc(NC(=O)[C@@H]3C[C@H]4CCC[C@H]4N3C(=O)[C@H](NC(=O)OC)c3ccccc3)ccc2-c2ccc(-c3cnc([C@@H]4CCCN4C(=O)[C@@H](NC(=O)OC)C(C)C)[nH]3)cc21` .
**Result** 0.01 to 0.1 nM

**Query** Report EC50 under test system HCV genotype 1b replicon with NS5A L31V mutation for `CCCCC1(CCCC)c2cc(NC(=O)[C@@H]3C[C@@H](O)CN3C(=O)[C@H](NC(=O)OC)c3ccccc3)ccc2-c2ccc(NC(=O)[C@@H]3C[C@@H](O)CN3C(=O)[C@H](NC(=O)OC)c3ccccc3)cc21` .
**Result** 0.01 to 0.1 nM

----------
# Test system: HCV genotype 1b replicon with NS5A Y93H mutation
# assay-protocol: Transiently transfected assay of genotype 1b resistance mutant RNA Y93H
# Assay type: cell-based
# conditions-used: Hepatitis C virus, Huh-7.5.1, 72 h, read-out: HCV Mutation Y93H
Assignment: determine reported EC50 for the given molecules.

**Query** Provide EC50, recorded with HCV genotype 1b replicon with NS5A Y93H mutation, of `CCCCC1(CCCC)c2cc(NC(=O)[C@@H]3CCCN3C(=O)[C@H](NC(=O)OC)c3ccccc3)ccc2-c2ccc(NC(=O)[C@@H]3CC(=O)CN3C(=O)[C@H](NC(=O)OC)c3ccccc3)cc21`
**Result** 0.1 to 1 nM

**Query** Answer briefly: EC50 recorded on HCV genotype 1b replicon with NS5A Y93H mutation for `CCCC1(CCC)c2cc(NC(=O)[C@@H]3CCCN3C(=O)[C@H](NC(=O)OC)c3ccccc3)ccc2-c2ccc(-c3cnc([C@@H]4CCCN4C(=O)[C@@H](NC(=O)OC)C(C)C)[nH]3)cc21`
**Result** 0.01 to 0.1 nM

**Query** GET EC50 where system = HCV genotype 1b replicon with NS5A Y93H mutation and item = `CCCC1(CCC)c2cc(NC(=O)[C@@H]3CC4(CN3C(=O)[C@H](NC(=O)OC)c3ccccc3)OCCO4)ccc2-c2ccc(-c3cnc([C@@H]4CCCN4C(=O)[C@@H](NC(=O)OC)C(C)C)[nH]3)cc21`
**Result** 0.001 to 0.01 nM

**Query** Determine reported EC50 for `CCCCCC1(CCCCC)c2cc(NC(=O)[C@@H]3CCCN3C(=O)[C@H](NC(=O)OC)c3ccccc3)ccc2-c2ccc(NC(=O)[C@@H]3CCCN3C(=O)[C@H](NC(=O)OC)c3ccccc3)cc21` ; test system: HCV genotype 1b replicon with NS5A Y93H mutation.
**Result** 1 to 100 nM

**Query** Lab note: record EC50 of `CCCCC1(CCCC)c2cc(NC(=O)[C@@H]3CC(=O)CN3C(=O)[C@H](NC(=O)OC)c3ccccc3)ccc2-c2ccc(NC(=O)[C@@H]3CC(=O)CN3C(=O)[C@H](NC(=O)OC)c3ccccc3)cc21` tested on HCV genotype 1b replicon with NS5A Y93H mutation.
**Result** 0.1 to 1 nM

**Query** Report measured EC50 on HCV genotype 1b replicon with NS5A Y93H mutation; entry: `CCCCC1(CCCC)c2cc(NC(=O)[C@@H]3C[C@H](O)CN3C(=O)[C@H](NC(=O)OC)c3ccccc3)ccc2-c2ccc(NC(=O)[C@@H]3C[C@H](O)CN3C(=O)[C@H](NC(=O)OC)c3ccccc3)cc21`
**Result** 0.1 to 1 nM

**Query** Send back HCV genotype 1b replicon with NS5A Y93H mutation EC50 of `CCCCC1(CCCC)c2cc(NC(=O)[C@@H]3C[C@@H](OC(=O)C(C)C)CN3C(=O)[C@H](NC(=O)OC)c3ccccc3)ccc2-c2ccc(NC(=O)[C@@H]3C[C@@H](OC(=O)C(C)C)CN3C(=O)[C@H](NC(=O)OC)c3ccccc3)cc21` only.
**Result** 0.01 to 0.1 nM

**Query** For HCV genotype 1b replicon with NS5A Y93H mutation, give EC50 of the listed molecule: `CCCCCC1(CCCCC)c2cc(NC(=O)[C@@H]3CCCN3C(=O)[C@H](NC(=O)OC)c3ccccc3)ccc2-c2ccc(NC(=O)[C@@H]3CC4(CN3C(=O)[C@H](NC(=O)OC)c3ccccc3)OCCO4)cc21`
**Result** 0.1 to 1 nM

**Query** Report EC50 under test system HCV genotype 1b replicon with NS5A Y93H mutation for `CCCCC1(CCCC)c2cc(NC(=O)[C@@H]3C[C@@H](OC(=O)CN4CCOCC4)CN3C(=O)[C@H](NC(=O)OC)c3ccccc3)ccc2-c2ccc(NC(=O)[C@@H]3C[C@@H](OC(=O)CN4CCOCC4)CN3C(=O)[C@H](NC(=O)OC)c3ccccc3)cc21` .
**Result** 0.01 to 0.1 nM
